Below is a list of entries, each paired with its recorded Plant response rating (scale of 0 to 100), Ragweed value.
Tested on: ragweed
Procedure details: Test C pre-/postemergence herbicide test
Type: in vivo, Ambrosia elatior
Measurement context: Preemergence, 250 g ai/ha
Give only the figure.

Would you please look over these solved cases?
O=C1NCC(c2cc(F)cc(F)c2)C1C(=O)Nc1cccc(F)c1F (racemic) ... 65
O=C1NCC(c2ccc(C(F)(F)F)cc2)C1C(=O)Nc1ccccc1Cl (stereo not drawn) ... 85

Now look at this entry.
Request: What value of measured Plant response rating (scale of 0 to 100), Ragweed is listed for O=C1NCC(c2cccc(C(F)(F)F)c2)C1C(=O)Nc1cccc(F)c1F (stereo not drawn) ?
Response: 70

* * *

Tested on: blackgrass
Procedure details: Test A postemergence herbicide test
Format: in vivo, Alopecurus myosuroides
Measurement context: 125 g ai/ha, 0 to 100 scale, 0 is no effect, 100 is complete control
Experimental readout: Plant response rating, Blackgrass
Give only the figure.

Would you please look over these solved cases?
CC(C)(C)c1cccc(C2CNC(=O)C2C(=O)Nc2cccc(F)c2F)c1 (racemic) ... 0
O=C1NCC(c2cc3ccccc3o2)C1C(=O)Nc1ccccc1C(F)(F)F (centres unmarked) ... 0
O=C1NCC(c2ccc(C(F)(F)F)cc2)C1C(=O)Nc1ccccc1Cl (centres unmarked) ... 60

Request: What value of measured Plant response rating, Blackgrass is listed for O=C1NCC(c2ccc(C(F)(F)F)cc2)C1C(=O)Nc1ccc(F)c(F)c1F (centres unmarked) ?
Response: 50

Request: What value of measured Plant response rating, Blackgrass is listed for O=C1NCC(c2ccc(OC(F)F)cc2)C1C(=O)Nc1ccccc1Br (centres unmarked) ?
Response: 0

Request: What value of measured Plant response rating, Blackgrass is listed for O=C1NCC(c2cc3ccccc3o2)C1C(=O)Nc1ccccc1F (racemic) ?
Response: 0

Request: What value of measured Plant response rating, Blackgrass is listed for O=C1NCC(c2cccc(C(F)F)c2)C1C(=O)Nc1ccc(F)c(F)c1F (racemic) ?
Response: 60

Request: What value of measured Plant response rating, Blackgrass is listed for CN1CC(c2cccc(C(F)(F)F)c2)C(C(=O)Nc2ccccc2F)C1=O (centres unmarked) ?
Response: 50

* * *

Tested on: kochia
Procedure details: Test A pre-/postemergence herbicide test
Format: in vivo, Kochia scoparia
Measurement context: Preemergence, 125 g ai/ha; 0 to 100 scale where 0 is no effect and 100 is complete control
Experimental readout: Plant response rating, Kochia
Give only the figure.

O=C1NCC(c2cc3ccccc3o2)C1C(=O)Nc1ccccc1C(F)(F)F (stereo not drawn) ... 0
O=C1NCC(c2cccc(Cl)c2)C1C(=O)Nc1cccc(F)c1F (racemic) ... 60
O=C1NCC(c2cccc(C(F)(F)F)c2)C1C(=O)Nc1ccc(F)c(F)c1F (stereo not drawn) ... 40
O=C1NCC(c2cc3ccccc3s2)C1C(=O)Nc1cccc(F)c1F (stereo not drawn) ... 0
O=C1NCC(c2cc3ccccc3o2)C1C(=O)Nc1ccccc1F (racemic) ... 0

Request: What value of measured Plant response rating, Kochia is listed for O=C1NCC(c2cccc(-n3cccn3)c2)C1C(=O)Nc1cccc(F)c1F (stereo not drawn) ?
Response: 0

* * *

Below is a list of entries, each paired with its recorded Plant response rating, Ragweed value.
Tested on: ragweed
Procedure details: Test A pre-/postemergence herbicide test
Assay type: in vivo, Ambrosia elatior
Measurement context: preemergence; 500 g ai/ha; 0 to 100 scale, 0 is no effect and 100 is complete control
Give only the figure.

Would you please look over these solved cases?
Cc1ccccc1NC(=O)C1C(=O)NCC1c1cccc(OC(F)F)c1 (stereo not shown) [Compound 230] ... 20
O=C1NCC(c2ccc(Cl)cc2)C1C(=O)Nc1ccccc1C(F)(F)F (stereo not shown) [Compound 219] ... 0
CON(C(=O)C1C(=O)NCC1c1ccc(F)c(F)c1)c1cc([N+](=O)[O-])ccc1F (stereo not shown) [Compound 175] ... 0
O=C1NCC(c2cccc(OC(F)F)c2)C1C(=O)Nc1ccccc1C(F)(F)F (stereo not shown) [Compound 222] ... 20
Cc1ccc(F)c(NC(=O)C2C(=O)NCC2c2cccc(C(F)(F)F)c2)c1 (racemic) [Compound 183] ... 0
O=C1NCC(c2ccc3c(c2)OC(F)(F)O3)C1C(=O)Nc1ccccc1F (racemic) [Compound 161] ... 70

Request: What value of measured Plant response rating, Ragweed is listed for O=C1NCC(c2ccc(OC(F)F)cc2)C1C(=O)Nc1ccccc1Br (stereo not shown) [Compound 225] ?
Response: 0

Request: What value of measured Plant response rating, Ragweed is listed for O=C1NCC(c2cccc(C3CC3)c2)C1C(=O)Nc1cccc(F)c1F (racemic) [Compound 167] ?
Response: 50

Request: What value of measured Plant response rating, Ragweed is listed for O=C1NCC(c2ccc(OC(F)(F)C(F)F)cc2)C1C(=O)Nc1ccc(F)c(F)c1F (racemic) [Compound 174] ?
Response: 0

Request: What value of measured Plant response rating, Ragweed is listed for CC(C)(C)c1cccc(C2CNC(=O)C2C(=O)Nc2cccc(F)c2F)c1 (racemic) [Compound 200] ?
Response: 0
